Source of measurements: patent US20210301005A1

So I've got a bunch of binders here, and I need their HEKBlue TGFβ blocking IC50 values.
Target: T1, human TGFβ2, mature receptor-binding domain (human, UniProt P09858 303-414 (pig entry), The mature TGFβ2 is a disulfide-linked homodimer of this 112-residue chain. The 4A11 epitope spans both monomers (p-1207).)
T1 sequence: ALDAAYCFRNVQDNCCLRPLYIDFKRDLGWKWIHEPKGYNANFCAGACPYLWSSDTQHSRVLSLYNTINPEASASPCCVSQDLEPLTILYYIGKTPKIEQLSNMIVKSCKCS
Test: cell-based or functional assay
Your answer is read as nM, so omit the unit and give the number.

[in] Determine its reported HEKBlue TGFβ blocking IC50: h4A11.v7.12 (antibody, human IgG1, kappa, N297G, V domains shown) VH: EQQLQESGPGLVKPSETLSLTCTVTGFSLSSYTVNWVRQPAGKGLEWIGYISYGGSAYYASWANGRFTISKDTSKNQVSLKLSSVTAADTAVYFCARHMQVGGAPTGSMAAFDPWGPGTLVTVSS VL: EAVLTQSPGTLSLSPGERATLSCQSSQSVYNNNYLSWFQQKPGQPPRLLIYGASTLTSGVPDRFSGSGSGTDFTLTISRLEPEDFAVYYCAGGYSGSSDKYAFGGGTKVEIKR
[out] 0.01

[in] Determine its reported HEKBlue TGFβ blocking IC50: 4A11 (antibody, V domains shown, anti-TGFβ2/3, recombinant rabbit monoclonal; some paragraphs print the H/L pair as 32/33; also called Rb1.4A11; Rbt 4A11) VH: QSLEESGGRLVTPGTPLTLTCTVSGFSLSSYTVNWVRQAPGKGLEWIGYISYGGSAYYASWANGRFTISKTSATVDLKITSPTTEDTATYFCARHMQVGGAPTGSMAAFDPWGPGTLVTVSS VL: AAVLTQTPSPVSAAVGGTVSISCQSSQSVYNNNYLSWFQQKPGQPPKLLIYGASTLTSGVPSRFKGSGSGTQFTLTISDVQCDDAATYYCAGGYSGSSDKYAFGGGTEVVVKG
[out] 0.09

[in] Determine its reported HEKBlue TGFβ blocking IC50: h4A11.v7.6 (antibody, V domains shown) VH: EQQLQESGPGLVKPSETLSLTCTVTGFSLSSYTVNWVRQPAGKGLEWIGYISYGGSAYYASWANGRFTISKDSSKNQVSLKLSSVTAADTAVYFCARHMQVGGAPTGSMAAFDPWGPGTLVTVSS VL: EAVLTQSPGTLSLSPGERATLSCQSSQSVYNNNYLSWFQQKPGQAPRLLIYGASTLTSGVPDRFSGSGSGTDFTLTISRLEPEDFAVYYCAGGYSGSSDKYAFGGGTKVEIK
[out] 0.01

[in] Determine its reported HEKBlue TGFβ blocking IC50: h4A11.v7.5 (antibody, V domains shown) VH: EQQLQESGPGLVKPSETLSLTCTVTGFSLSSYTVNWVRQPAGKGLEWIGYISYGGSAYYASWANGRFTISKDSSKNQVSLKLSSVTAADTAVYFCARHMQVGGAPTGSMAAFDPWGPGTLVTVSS VL: EAVLTQSPGTLSLSPGERATLSCQSSQSVYNNNYLSWYQQKPGQPPRLLIYGASTLTSGVPDRFSGSGSGTDFTLTISRLEPEDFAVYYCAGGYSGSSDKYAFGGGTKVEIK
[out] 0.16

[in] Determine its reported HEKBlue TGFβ blocking IC50: h4A11.v7.10 (antibody, human IgG1, kappa, N297G, V domains shown) VH: EQQLQESGPGLVKPSETLSLTCTVTGFSLSSYTVNWVRQPAGKGLEWIGYISYGGSAYYASWANGRVTISKDSSKNQVSLKLSSVTAADTAVYFCARHMQVGGAPTGSMAAFDPWGPGTLVTVSS VL: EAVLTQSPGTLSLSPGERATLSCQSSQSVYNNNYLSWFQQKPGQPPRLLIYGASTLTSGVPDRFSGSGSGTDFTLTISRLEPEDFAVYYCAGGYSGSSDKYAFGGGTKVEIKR
[out] 0.02

[in] Determine its reported HEKBlue TGFβ blocking IC50: h4A11.v7.13 (antibody, human IgG1, kappa, N297G, V domains shown) VH: EQQLQESGPGLVKPSETLSLTCTVTGFSLSSYTVNWVRQPAGKGLEWIGYISYGGSAYYASWANGRFTISKDSSKNQFSLKLSSVTAADTAVYFCARHMQVGGAPTGSMAAFDPWGPGTLVTVSS VL: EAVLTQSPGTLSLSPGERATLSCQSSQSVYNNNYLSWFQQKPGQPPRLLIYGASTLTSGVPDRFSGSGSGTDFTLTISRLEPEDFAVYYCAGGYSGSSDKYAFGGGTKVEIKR
[out] 0.03
